Assay target: FGFR1 (SEQ ID NO: 1, amino acids 458-765) (Homo sapiens (Human), UniProt P11362)
Sequence (P11362 458-765): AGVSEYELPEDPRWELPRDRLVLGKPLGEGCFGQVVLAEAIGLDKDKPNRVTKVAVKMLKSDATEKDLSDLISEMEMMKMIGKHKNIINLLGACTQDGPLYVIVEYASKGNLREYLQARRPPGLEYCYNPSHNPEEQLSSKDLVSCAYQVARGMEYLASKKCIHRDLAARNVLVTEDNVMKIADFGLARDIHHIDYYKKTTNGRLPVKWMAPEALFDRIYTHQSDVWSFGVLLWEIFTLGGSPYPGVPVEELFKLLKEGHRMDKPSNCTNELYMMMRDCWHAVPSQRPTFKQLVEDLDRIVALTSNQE
Assay text: LC/MS FGFR1 kobs assay (covalent protein modification)
Type: binding
Test context: 500 nM FGFR1, 3 μM compound
Measurement name: FGFR1 Enz kobs (min⁻¹)

// below: answered compounds
INSERT INTO results (compound, result_unit, value_observed) VALUES
  ('C=CC(=O)Nc1ccc(C(=O)N2CCC(n3cc(-c4cc(OC)c5c(C#N)cnn5c4)cn3)CC2)cc1 [Example 177]', 'min⁻¹', 0.00324),
  ('C=CC(=O)N1CC(C(=O)N2CCC3(CC2)CN(c2ccc(-c4cc(OC)c5c(C#N)cnn5c4)cn2)C3)C1 [Example 102]', 'min⁻¹', 0.00313),
  ('C=CC(=O)Nc1cccc(C(=O)N2CCC[C@@H](n3cc(-c4cc(OC)c5c(C#N)cnn5c4)cn3)C2)c1 [Example 24]', 'min⁻¹', 0.0025),
  ('C=CC(=O)N1CCC(NC(=O)c2ccc(-c3cc(OC)c4c(C#N)cnn4c3)cc2)CC1 [Example 166]', 'min⁻¹', 0.00032),
  ('C=CC(=O)N1CC(F)(C(=O)N2CCC(n3ncc(-c4cc(OC)c5c(C#N)cnn5c4)c3CC)CC2)C1 [Example 96]', 'min⁻¹', 0.00363);

I = C=CC(=O)N1CC(O)(C(=O)N2CCC(n3ncc(-c4cc(OC)c5c(Cl)cnn5c4)c3C)CC2)C1 [Example 172]
II = COc1cc(-c2cnn(C3CCN(C(=O)C4(OC)CN(C(=O)/C=C/CN(C)C)C4)CC3)c2C)cn2ncc(C#N)c12 [Example 158]
Looking at recorded values for FGFR1 Enz kobs, does I or II come in lower? Write down the label attached to your selection. I
(I: 0.00191 min⁻¹, II: 0.00588 min⁻¹)

P = C=CC(=O)N1CC(C(=O)N2CC[C@H](n3cc(-c4cc(OC)c5c(C#N)cnn5c4)cn3)C2)C1 [Example 73]
Q = C=CC(=O)N1CC[C@@H](C(=O)N2CC[C@H](n3cc(-c4cc(OC)c5c(C#N)cnn5c4)cn3)C2)C1 [Example 72]
R = C=CC(=O)N1CC(OC)(C(=O)N2CCC(n3cc(-c4cc(OC)c5c(C#N)cnn5c4)cn3)CC2)C1 [Example 41]
S = C=CC(=O)N1CC(OC)(C(=O)N2CCC(n3nc(C)c(-c4cc(OC)c5c(C#N)cnn5c4)c3C)CC2)C1 [Example 95]
hey, can you rank those compounds up there by FGFR1 Enz kobs? biggest number first please Put the labels in the requested order and write them down. S, R, P, Q
(S: 0.00409 min⁻¹, R: 0.00254 min⁻¹, P: 0.00108 min⁻¹, Q: 0.00049 min⁻¹)

I = C=CC(=O)N1CC(C)(C(=O)N2CCC(n3cc(-c4cc(OC)c5c(Cl)cnn5c4)cn3)CC2)C1 [Example 123]
II = C=CC(=O)N1CCN(C(=O)N2CCC(n3cc(-c4cc(OC)c5c(C#N)cnn5c4)cn3)CC2)CC1 [Example 2]
Between I and II , whose measured FGFR1 Enz kobs reads higher? Write down the label attached to your selection. I
(I: 0.00126 min⁻¹, II: 0.00076 min⁻¹)

a = C=CC(=O)N1CCC(C(=O)N2CC(n3cc(-c4cc(OC)c5c(C#N)cnn5c4)cn3)C2)CC1 [Example 75]
b = C=CC(=O)N1CC(C(=O)N2CCC(n3cc(-c4cc(OC(C)C)c5c(C#N)cnn5c4)cn3)CC2)C1 [Example 127]
Between a and b , whose measured FGFR1 Enz kobs reads higher? Write down the label attached to your selection. b
(b: 0.00133 min⁻¹, a: 0.00081 min⁻¹)
